Data provenance: PubChem BioAssay (EPA / NIEHS)

Listing of entries alongside the reported AC50.
system: zebrafish Estrogen Receptor (ER2b), gene 317733; experiment: ATG_zfER2b_XSP2: Attagene TRANS-FACTORIAL Multi-Species (XSP2) HepG2 Assay for zebrafish Estrogen Receptor (ER2b) (AID 2283823);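 also: fitted upward as reporter gain over DMSO so potency reflects activation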
Inconclusive results are not listed. Active and inactive are the calls of the source. The calls were made as follows: active = hit-call score of the fitted dose curve at least 0.9, where 1 is the maximum; inconclusive = response in the unintended direction; inactive = score below 0.9.

- Structure Smiles String: "CCOCN(C(=O)CCl)c1c(C)cccc1CC"
  Recorded Value: "100 µM (active)"

stdin: Find the recorded AC50 belonging to `CCCN(CCC)c1c([N+](=O)[O-])cc(C(F)(F)F)cc1[N+](=O)[O-]` and report it.
stdout: 69.9 µM (active)

stdin: Same again, this time with `O=C(O)C(F)(F)C(F)(F)C(F)(F)C(F)(F)C(F)(F)C(F)(F)C(F)(F)F`
stdout: 124 µM (active)

stdin: Same again, this time with `COP(=S)(OC)Oc1ccc(SC)c(C)c1`
stdout: 59 µM (active)

###

read-out: Cytochrome P450 3A4 (Homo sapiens) (UniProt P08684); assay: CLD_CYP3A4_24hr: CellzDirect (CLD) Gene Expression Assay for xenobiotic metabolism (CYP3A4) at 24 hours (AID 2283689)
Sequence (P08684 whole entry, looked up): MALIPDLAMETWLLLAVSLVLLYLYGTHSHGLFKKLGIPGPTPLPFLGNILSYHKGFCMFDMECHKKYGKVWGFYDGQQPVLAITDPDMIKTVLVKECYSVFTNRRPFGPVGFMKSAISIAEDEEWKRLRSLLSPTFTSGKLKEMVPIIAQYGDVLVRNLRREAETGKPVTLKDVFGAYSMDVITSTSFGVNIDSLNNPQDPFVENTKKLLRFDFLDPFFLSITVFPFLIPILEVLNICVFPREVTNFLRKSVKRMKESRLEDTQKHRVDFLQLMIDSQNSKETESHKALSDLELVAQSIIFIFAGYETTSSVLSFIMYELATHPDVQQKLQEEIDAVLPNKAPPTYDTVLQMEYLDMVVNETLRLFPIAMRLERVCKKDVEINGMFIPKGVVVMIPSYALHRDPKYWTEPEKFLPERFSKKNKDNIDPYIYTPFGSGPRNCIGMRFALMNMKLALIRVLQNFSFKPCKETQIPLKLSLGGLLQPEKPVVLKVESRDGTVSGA
Inconclusive results are not listed. The source made the active and inactive calls. Rule for the calls: active = hit-call score of the fitted dose curve at least 0.9, where 1 is the maximum; inconclusive = response in the unintended direction; inactive = score below 0.9.
The categories you may choose from are active, inactive

Before answering, review these 5 worked examples.
- Compound: "C[C@H]1[C@H](c2ccc(Cl)cc2)SC(=O)N1C(=O)NC1CCCCC1"
  Cat: "active"
- Compound: "Oc1ccc(Cl)cc1Cc1ccccc1"
  Cat: "inactive"
- Compound: "Cc1[nH]c(=O)n(C(C)(C)C)c(=O)c1Cl"
  Cat: "inactive"
- Compound: "O=S1OCC2C(CO1)C1(Cl)C(Cl)=C(Cl)C2(Cl)C1(Cl)Cl (stereo unspecified)"
  Cat: "active"
- Compound: "O=[N+]([O-])c1c(Cl)c(Cl)c(Cl)c(Cl)c1Cl"
  Cat: "inactive"

Shifting focus to the compound that follows.
stdin: Please indicate how the test categorized `Clc1ccccc1-c1nnc(-c2ccccc2Cl)nn1` .
stdout: active

###

assay: BSK_SAg_SRB: Viability Assessment in the BioMAP Diversity Plus: SAg Assay (AID 2283096); conditions: primary human HUVEC with PBMC;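 also: cells read one day after compound addition; hits may be either gain or loss of signal compared with DMSO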
Active and inactive are the calls of the source. Rule for the calls: active = hit-call score of the fitted dose curve at least 0.9, where 1 is the maximum; inactive = score below 0.9.
The categories you may choose from are active, inactive

Before answering, review these 5 worked examples.
- Compound: "COC(=O)c1ccccc1S(=O)(=O)NC(=O)N(C)c1nc(C)nc(OC)n1"
  Cat: "inactive"
- Compound: "CNC(=O)CSP(=S)(OC)OC"
  Cat: "inactive"
- Compound: "CCCN(CCC)c1c([N+](=O)[O-])cc(C(F)(F)F)cc1[N+](=O)[O-]"
  Cat: "active"
- Compound: "CC(C)(C)C(O)/C(=C\\c1ccc(Cl)cc1Cl)n1cncn1 (stereo unspecified)"
  Cat: "active"
- Compound: "O=C(O)C(F)(F)C(F)(F)C(F)(F)C(F)(F)C(F)(F)C(F)(F)C(F)(F)F"
  Cat: "inactive"

stdin: Please indicate how the test categorized `O=C(O)CCCOc1ccc(Cl)cc1Cl` .
stdout: inactive

stdin: Same again, this time with `CCS(=O)(=O)c1cccnc1S(=O)(=O)NC(=O)Nc1nc(OC)cc(OC)n1`
stdout: inactive

stdin: Same again, this time with `Oc1ccc(Cl)cc1Cc1ccccc1`
stdout: active

stdin: Same again, this time with `N#Cc1c(Cl)c(Cl)c(Cl)c(C#N)c1Cl`
stdout: active

stdin: Same again, this time with CCC(C)Nc1c([N+](=O)[O-])cc(C(C)(C)C)cc1[N+](=O)[O-] (stereo unspecified)
stdout: inactive

stdin: Same again, this time with `Clc1ccccc1-c1nnc(-c2ccccc2Cl)nn1`
stdout: inactive

###

read-out: Forkhead box O1 (FOXO1), FOXO1 (gene 2308); assay: LTEA_HepaRG_FOXO1: Life Technologies and Expression Analysis (LTEA) Assay for Forkhead box O1 (FOXO1) using HepaRG (AID 2283456); details: mRNA level, 48 h; actives raise or lower the signal
Active and inactive are the calls of the source. The calls were made as follows: active = hit-call score of the fitted dose curve at least 0.9, where 1 is the maximum; inactive = score below 0.9.
The categories you may choose from are 1 = active, -1 = inactive

Before answering, review these 5 worked examples.
- Molecule: "ClC1C(Cl)C(Cl)C(Cl)C(Cl)C1Cl (centres undefined)"
  Cat: -1
- Molecule: "CCC(C)Nc1c([N+](=O)[O-])cc(C(C)(C)C)cc1[N+](=O)[O-] (centres undefined)"
  Cat: -1
- Molecule: "CCc1ccc(C(=O)NN(C(=O)c2cc(C)cc(C)c2)C(C)(C)C)cc1"
  Cat: -1
- Molecule: "OCCOc1ccccc1"
  Cat: -1
- Molecule: "COP(=S)(OC)Oc1ccc([N+](=O)[O-])cc1"
  Cat: -1

stdin: Please indicate how the test categorized `COP(=O)(OC)OC=C(Cl)Cl` .
stdout: -1

###

target: rat CYP2D2, Cyp2d26 (gene 25053); assay: NVS_ADME_rCYP2D2: NovaScreen (NVS) CYP450-related Enzyme Activity (ADME) Assay for rat CYP2D2 (AID 2283124)
Results filed as inconclusive are left out. The source made the active and inactive calls. The calls were made as follows: active = hit-call score of the fitted dose curve at least 0.9, where 1 is the maximum; inconclusive = response in the unintended direction; inactive = score below 0.9.
Readout Name: AC50

- Structure Smiles String: "Oc1cc(Cl)ccc1Oc1ccc(Cl)cc1Cl"
  Assay Target: "rat CYP2D2, Cyp2d26 (gene 25053)"
  AC50: "10 µM (active)"

stdin: Find the recorded AC50 belonging to `Oc1ccc(Cl)cc1Cc1ccccc1` and report it.
stdout: 5.11 µM (active)

stdin: Same again, this time with `CC(C)N(C(=O)COc1nnc(C(F)(F)F)s1)c1ccc(F)cc1`
stdout: 10 µM (active)

stdin: Same again, this time with `[2H]C1([2H])[n+]2ccccc2-c2cccc[n+]2C1([2H])[2H]`
stdout: 10 µM (active)

###

experiment: ATG_CRE_CIS: Attagene CIS-FACTORIAL HepG2 Assay for human cAMP Responsive Element (CRE) binding protein 3 (AID 2282926); settings: HepG2 CRE cis-reporter, Attagene multiplexed mRNA; actives raise or lower the signal
Calls of active or inactive are those of the source. Rule for the calls: active = hit-call score of the fitted dose curve at least 0.9, where 1 is the maximum; inactive = score below 0.9.
The categories you may choose from are active, inactive

- Compound: "N#CN"
  Cat: "inactive"
- Compound: "Clc1ccccc1-c1nnc(-c2ccccc2Cl)nn1"
  Cat: "inactive"
- Compound: "OCCOc1ccccc1"
  Cat: "inactive"
- Compound: "COP(=O)(OC)OC=C(Cl)Cl"
  Cat: "inactive"
- Compound: "CC(C)(C)C(O)/C(=C\\c1ccc(Cl)cc1Cl)n1cncn1 (stereo not drawn)"
  Cat: "inactive"
- Compound: "O=[N+]([O-])c1c(Cl)c(Cl)c(Cl)c(Cl)c1Cl"
  Cat: "active"

stdin: Please indicate how the test categorized `COP(=S)(OC)Oc1ccc(SC)c(C)c1` .
stdout: inactive

stdin: Same again, this time with `COP(=S)(OC)Oc1ccc([N+](=O)[O-])cc1`
stdout: inactive

stdin: Same again, this time with `CCOc1nc(NC)nc(NC(=O)NS(=O)(=O)c2ccccc2C(=O)OC)n1`
stdout: inactive

stdin: Same again, this time with `CCS(=O)(=O)c1cccnc1S(=O)(=O)NC(=O)Nc1nc(OC)cc(OC)n1`
stdout: inactive

stdin: Same again, this time with `Cc1[nH]c(=O)n(C(C)(C)C)c(=O)c1Cl`
stdout: active

stdin: Same again, this time with `C[C@H]1[C@H](c2ccc(Cl)cc2)SC(=O)N1C(=O)NC1CCCCC1`
stdout: inactive

stdin: Same again, this time with `CNC(=O)/C=C(\C)OP(=O)(OC)OC`
stdout: inactive

stdin: Same again, this time with CC[C@H](C)[C@H]1O[C@]2(C=C[C@@H]1C)C[C@@H]1C[C@@H](C/C=C(\C)[C@@H](O[C@H]3C[C@H](OC)[C@@H](O[C@H]4C[C@H](OC)[C@@H](O)[C@H](C)O4)[C@H](C)O3)[C@@H](C)/C=C/C=C3\CO[C@@H]4[C@H](O)C(C)=C[C@@H](C(=O)O1)[C@]34O)O2 (tested in a mixture with another compound)
stdout: inactive

###

read-out: Cytochrome P450 2C19 (Homo sapiens) (UniProt P33261); assay: LTEA_HepaRG_CYP2C19: Life Technologies and Expression Analysis (LTEA) Assay for CYP2C19 using HepaRG (AID 2283482); settings: mRNA level, 48 h; actives raise or lower the signal
Sequence (P33261 whole entry, looked up): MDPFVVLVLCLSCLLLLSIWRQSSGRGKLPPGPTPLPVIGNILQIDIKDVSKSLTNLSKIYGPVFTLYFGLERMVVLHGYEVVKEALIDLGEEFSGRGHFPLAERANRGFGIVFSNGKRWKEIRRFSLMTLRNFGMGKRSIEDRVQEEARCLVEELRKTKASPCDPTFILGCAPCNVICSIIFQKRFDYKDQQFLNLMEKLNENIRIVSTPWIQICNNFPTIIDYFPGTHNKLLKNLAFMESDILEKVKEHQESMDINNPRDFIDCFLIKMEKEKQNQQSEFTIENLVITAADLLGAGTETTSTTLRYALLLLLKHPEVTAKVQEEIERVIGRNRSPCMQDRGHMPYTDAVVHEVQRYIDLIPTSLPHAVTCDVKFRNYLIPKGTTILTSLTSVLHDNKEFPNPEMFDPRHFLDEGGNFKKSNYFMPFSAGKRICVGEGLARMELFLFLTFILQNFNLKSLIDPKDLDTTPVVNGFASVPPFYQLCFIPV
Calls of active or inactive are those of the source. The calls were made as follows: active = hit-call score of the fitted dose curve at least 0.9, where 1 is the maximum; inactive = score below 0.9.
The categories you may choose from are yes = active, no = inactive

stdin: Please indicate how the test categorized `CNC(=O)Oc1cccc(N=CN(C)C)c1` .
stdout: no

###

tested on: turtle Estrogen Receptor (ERa), gene 101933533; assay: ATG_trERa_XSP2: Attagene TRANS-FACTORIAL Multi-Species (XSP2) HepG2 Assay for turtle Estrogen Receptor (ERa) (AID 2283812);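 also: human HepG2 liver cells transiently expressing turtle ERa-Gal4 chimeric receptor; reporter mRNA from GAL4-UAS units measured by RT-PCR and capillary electrophoresis; actives raise reporter signal above DMSO so AC50 reflects agonist activity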
Results filed as inconclusive are left out. Active and inactive are the calls of the source. Rule for the calls: active = hit-call score of the fitted dose curve at least 0.9, where 1 is the maximum; inconclusive = response in the unintended direction; inactive = score below 0.9.
The categories you may choose from are YES for active, NO for inactive

Before answering, review these 4 worked examples.
- Structure Smiles String: "COP(=S)(OC)Oc1ccc(SC)c(C)c1"
  Cat: "YES"
- Structure Smiles String: "O=C(O)C(F)(F)C(F)(F)C(F)(F)C(F)(F)C(F)(F)C(F)(F)C(F)(F)F"
  Cat: "YES"
- Structure Smiles String: "CCCN(CCOc1c(Cl)cc(Cl)cc1Cl)C(=O)n1ccnc1"
  Cat: "NO"
- Structure Smiles String: "CCCN(CCC)c1c([N+](=O)[O-])cc(C(F)(F)F)cc1[N+](=O)[O-]"
  Cat: "NO"

Shifting focus to the molecule that follows.
stdin: Please indicate how the test categorized `Oc1cc(Cl)ccc1Oc1ccc(Cl)cc1Cl` .
stdout: NO
